Source of measurements: patent US8598320B2

# targetOrTestSystem: PCSK9 (Homo sapiens, UniProt Q8NBP7)
# Sequence (Q8NBP7 153-692): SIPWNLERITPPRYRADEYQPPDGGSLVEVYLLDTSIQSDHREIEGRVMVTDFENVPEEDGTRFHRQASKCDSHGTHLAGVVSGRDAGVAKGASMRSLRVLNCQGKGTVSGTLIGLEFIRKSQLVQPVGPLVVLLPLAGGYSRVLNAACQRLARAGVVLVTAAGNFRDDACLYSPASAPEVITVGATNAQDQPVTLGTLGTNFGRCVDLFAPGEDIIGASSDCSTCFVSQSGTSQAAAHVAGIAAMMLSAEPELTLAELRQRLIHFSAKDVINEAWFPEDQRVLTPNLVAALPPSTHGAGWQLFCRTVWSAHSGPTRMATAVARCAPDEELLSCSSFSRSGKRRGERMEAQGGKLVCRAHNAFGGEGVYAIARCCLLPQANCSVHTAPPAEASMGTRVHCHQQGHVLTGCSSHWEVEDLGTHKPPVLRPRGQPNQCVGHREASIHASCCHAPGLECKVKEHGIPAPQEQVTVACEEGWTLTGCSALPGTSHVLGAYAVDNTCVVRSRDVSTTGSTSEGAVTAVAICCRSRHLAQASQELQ
# testDetails: In-cell western: inhibition of PCSK9-mediated LDLR degradation in HepG2 cells
# Type: cell-based
# Design: The protein was added exogenously to HepG2 cells; key: Greater number of + symbols indicates a greater level of inhibition relative to other treatments.; ++: Greater number of + symbols indicates a greater level of inhibition relative to other treatments.; +++: Greater number of + symbols indicates a greater level of inhibition relative to other treatments
# runConditions: PCSK9 100 nM, 18 hours, LDLR normalized to β-actin
property: Relative level of inhibition of LDLR degradation observed

Completed entries (count: 5):
1F11/1G11: mouse anti-human PCSK9 antibody (IgG2a); heavy chain SEQ ID NO: 50, light chain SEQ ID NO: 54 (antibody, listed as Mus musculus, V domains shown) VH: EVQLQQSGPELVKPGASVKISCKVSGYTFTDYYMNWVKQSHGKSLEWIGDINPNNGGAIYNQKFKGKATLTVDKSSSIAYMELRSLTSEDSAVYYCTSGIITEIAEDFWGQGTTLTVSS VL: DIVMTQSQKFMSTSVGDRVSVTCKASQNVGTNVVWYQQKPGQSPKALIHSASYRYSGVPDRFKGSGSGTDFTLTITNVQSEDLAGFFCQQYKTYPYTFGGGTQLEIKRA
+++
22D11: anti-human PCSK9 antibody (IgG1); heavy chain SEQ ID NO: 42, light chain SEQ ID NO: 46 (antibody, listed as Mus musculus, V domains shown) VH: EVQLVDSGGGLVQPGRSLKLSCAASGFTFSNHDMAWVRQAPTKGLEWVASITPSGGTTYYRDSVEGRFTVSRDNVKSSLHLQMDSLTSEDTATYYCARQNYYDGSYYYGLYYFDYWGQGVMVTVSS VL: DVLMTQTPVSLPVSLGGQVSISCRSSQSLVYSDGNTYLHWYLQKPGQSPQLLIYRVSNRFSGVPDRFSGSGSGTDFTLKISRVEPEDLGLYYCLQSTHFPPTFGSGTKLEIKRA
+
77D10: mouse anti-human PCSK9 antibody (IgG2b); heavy chain SEQ ID NO: 26, light chain SEQ ID NO: 30 (antibody, listed as Mus musculus, V domains shown) VH: EVQLQQSGAELVRSGASVKLSCTTSGFNIKDYYIHWVKQRPEQGLEWIGWIDPENGDTEYAPKFQGKATMTADTSSNTAYLQLSSLTSADTAVYYCNAYYRYDDGTWFPYWGQGTLVTVSA VL: DIQLTQSPASLSASVGETVTITCRASGNIHSYLAWYQQKQGKSPQFLVDNAKTLPDGVPSRFSVSGSGTQYSLKINSLQPEDFGTYYCQHFWNTPWTFGGGTKLEIKRA
++
75B9: mouse anti-human PCSK9 antibody (IgG2a); heavy chain SEQ ID NO: 18, light chain SEQ ID NO: 22 (antibody, listed as Mus musculus, V domains shown) VH: EVQLQQSGADLVKPGASVKLSCTASGFNIKDTYIHWVKQRPEQGLEWIGRIDPANGHTEYDPKFQGRATLTTDTSSNTAYLQLFSLTSEDSAVYFCARSYYGSIFAYWGQGTLVTVSA VL: QIVLTQSPAIMSASPGEKVTISCSASSSVSYLFWYQQKPGSSPKPWIFRTSYLASGVPARFSGSGSGTSFSLTISSMEAEDAATYYCHQYHTYPPTFGGGTKLEIKRA
++
11B5: mouse anti-human PCSK9 antibody (IgG2a); heavy chain SEQ ID NO: 10, light chain SEQ ID NO: 14 (antibody, listed as Mus musculus, V domains shown) VH: EVQLQQSGAELVKPGASVTLSCTASGFNIKDTYMHWVNQRPEQGLVWIGRIDPANGHTEYDPKFQDKATITTDTSSNTAYLHLSSLTSGDTAVYYCARSYFGSIFAYWGQGTLVTVSA VL: QIVLTQSPAIMSASPGEKVTISCSASSSVSYLYWYQQKPGSSPKPWIFRSSHRASGVPARFSGSGSGTSYSLTISSMEAEDAATYYCHQYQSYPPTFGGGTKLEIKRA
++

Now for a further molecule.
Measured Relative level of inhibition of LDLR degradation observed of 29C10: mouse anti-human PCSK9 antibody (IgG2a); heavy chain SEQ ID NO: 34, light chain SEQ ID NO: 38 (antibody, listed as Mus musculus, V domains shown) VH: EVLLQQSVAELVRPGASVRLSCTASGFNIKDTYIHWVRQRPEQGLEWFGWIDPANGYTKYAPNFQGKATLTTDTSSNTAYLHLSSLTSEDSAIYYCARGYYRYYSLDYWGQGTSVTVSS VL: DIQMTQTTSSLSASLGDRVTISCRASQDISNYLNWYQQKPDGTVKLLIYYSSRLHSGVPSRFSGRGSGTDYSLTISTLEQEDIATYFCQQGKTLPLTFGAGTKLELKRA : +
